compounds and their reported melting point
ENDPOINT LABEL: melting point

- CCOC(=O)/C=C/C(=O)Nc1ccc2ncnc(Nc3cccc(Br)c3)c2c1: 259 to 263 °C
- Cc1c(NC(=O)NC(C)(C)CO)c(C)c2c(c1-c1ccccc1)OCC2c1ccc(C(C)C)cc1 (centres undefined): 181 to 182 °C
- Cc1cc(-c2nc3cccnn3c2-c2ccnc(NC(=O)NC(C)(C)C)c2)ccc1F: 234 to 235 °C
- COC1CCCN(Nc2nc(Cl)nc3c2ncn3C2OC(CCl)C(O)C2O)C1 (centres undefined): 200 to 202 °C
- c1ccc2c3c([nH]c2c1)CCCSCC3: 106 to 107 °C
- COC(=O)CCc1cc2cc(F)c(Cl)cc2n1S(=O)(=O)c1ccccc1: 127 to 130 °C
- COc1cccc(C2CCCCN(C)C2=O)c1 (centres undefined): 73 to 74 °C
- COc1ccc(Oc2cccc(C(F)(F)F)c2)c(C(=O)O)c1: 124 °C
- CN1CCC(C2CCN(c3ncc4ncnc(Nc5ccc(F)c(Cl)c5)c4n3)CC2)CC1: 159 to 162 °C
- COc1ccc(C(=O)Nc2cc(C(=O)NCc3ccccc3)ccn2)cc1: 165 to 166 °C
- COC(=O)C(C)NC(=O)Cc1cc(C)c(C(=O)c2ccc(Cl)cc2)n1C (centres undefined): 163 to 165 °C
- Cc1ccc(-n2cc(C(=O)O)c(=O)c3ccc(-c4ccncc4)cc32)cc1C: 301 to 303 °C
- CC(C)Oc1ccc([N+](=O)[O-])cc1O: 139 °C
- CC(=O)N[C@@H](CSC(=O)c1ccccc1)C(=O)NCCSC(=O)c1ccccc1: 188 to 190 °C
- O=C(Nc1ccc2oc3c(c2c1)CCCC3)c1ccccc1: 178 to 180 °C
- CCOC(=O)c1cc(O)c2nc(C3CC3)n(C)c2c1: 201 to 202 °C
- O=CNc1ccccc1N1CCc2cc(Cl)ccc21: 126 to 129 °C
- N#Cc1cccc(/C=C/c2cc(Cl)cnc2N)c1: > 275 °C
- COc1ccc2c(c1)C=C(c1ccc3c(c1)NC(=O)CO3)C(c1ccccc1)O2 (centres undefined): 200 °C
- COc1ccc(-c2[nH]cnc2-c2cc(OC)c(O)c(OC)c2)cc1N: 148 to 150 °C
- O=C(c1ccccc1)c1cc(Cl)ccc1-n1c(CN2C(=O)c3ccccc3C2=O)nnc1CN1C(=O)c2ccccc2C1=O: 250 to 251 °C
- CC(=O)N(C(=NC1CCCCC1)ON=C(C)C)C1CCCCC1: 74 to 78 °C
- CCCn1c(=O)c(=O)[nH]c2cc([N+](=O)[O-])c(-n3ccc(=O)c([N+](=O)[O-])c3)cc21: > 300 °C
- CCOC(=O)N1CCCC(Nc2nc3cncnc3n2Cc2ccc(F)cc2)CC1 (centres undefined): 157 °C
- COc1cc(-c2nc3sccn3c2-c2ccnc(NC3CCN(S(=O)(=O)C4CC4)CC3)n2)ccc1F: 146 to 148 °C
- CCCn1cc(Cc2ccc(C(=O)OC)cc2OC)c2cc(C=C(C)C(=O)O)ccc21: 159 to 161 °C
- COc1cccc(Cc2cc3cccc(-c4cccc(C(=O)NC5CCOCC5)c4)c3o2)c1: 146 to 147 °C
- O=C(Nc1cc2ncc(CN3CCCC3)cc2cc1Cl)c1ccc(-c2ccc(Cl)s2)cc1: 185 °C
- O=C1c2c(Sc3ccccc3)ccc(Sc3ccc(O)cc3)c2C(=O)c2c(Sc3ccccc3)ccc(Sc3ccc(O)cc3)c21: > 340 °C
- COc1cccc2c1CN(Nc1ccncc1)CC2: 170 to 171 °C
- O=c1[nH]nc(-c2cc(Cl)ccc2O)n1-c1ccc(C(F)(F)F)cc1: 236 to 238 °C
- C=CCc1ccccc1OC[C@@H](O)CNCCc1ccc(NC2CCN(S(=O)(=O)c3ccc(N(CCCCCC)C(N)=O)cc3)CC2)cc1: 68 to 70 °C
- O=Cc1ccc(OC(F)F)c(OCC2CC2)c1: 115 to 116 °C
- CCN(C#N)C(=O)C(C)Oc1ccc(Oc2cnc3cc(F)ccc3n2)cc1 (centres undefined): 108 to 111 °C
- O=C(Nc1ccc(OCCNCC2CC2)cc1)c1c[nH]c2c1C(=O)CCC2: 234 °C
- CC(O)CC#Cc1cc(CN2CCOCC2)cc2c(=O)c(C(=O)NCc3ccc(Cl)cc3)cn(C)c12 (centres undefined): 178 to 180 °C
- COc1ccc(CC(=O)O)cc1C(C)(C)C: 93 to 94 °C
- c1cnc(NCCN2CCC(=C3c4sccc4CCn4ccnc43)CC2)nc1: 173 °C
- CN1C(=O)NC(Cc2c[nH]c3ccccc23)C1=O (centres undefined): 207 to 210 °C

###

compounds and their reported melting point
ENDPOINT LABEL: melting point

• COc1ccc2[nH]c3cc(-c4cc([N+](=O)[O-])ccc4OC)c4c(c3c2c1)C(=O)NC4=O = 302 to 304 °C
• Cc1cccc2c1nc(COc1ccc(Cl)cc1)n2CCC(Cc1ccccc1)C(=O)O (stereo not given) = 190 to 192 °C
• COCCCNC(=O)Nc1ccc(N(C)C)cc1C(=O)NCC1CCN(C(c2ccccc2)c2ccccc2)CC1 = 191 to 193 °C
• O=C1CC(=Cc2ccccc2)C(=O)O1 = 167 to 170 °C
• CCOC(CNC(=C[N+](=O)[O-])SC)OCC = 73 to 73.5 °C
• COC(=O)CCc1cc2cc(F)ccc2n1S(=O)(=O)c1ccccc1 = 79 to 80 °C
• CCCCCCC(C(=O)O)n1cnc(NC(=O)C2(O)c3ccccc3-c3ccccc32)c1 (stereo not given) = 128 °C
• OC1(C2CCNCC2)CC(c2ccc(F)cc2)c2ccc(F)cc21 (stereo not given) = 198 °C
• O=C(Cn1nnnc1-c1ccsc1)OCCCCCO = 39 to 42 °C
• COC(=O)C(CCBr)Oc1cc([N+](=O)[O-])cc2c1CCCC2 (stereo not given) = 99 to 100 °C

###

molecules and their reported melting point
ENDPOINT LABEL: melting point

* CCC#COc1ccc(S(=O)(=O)NC(CSCc2ccccc2)C(=O)NO)cc1 (stereo unspecified) | 137 to 138 °C
* CC1CC(=O)NN=C1c1ccc2nc(C3CC3)n(Cc3ccc(-c4ccccc4-c4nnn[nH]4)cc3)c2c1 (stereo unspecified) | 216 °C
* COC(=O)c1ccc(NC(=O)C(=Cc2ccccc2)C(=O)C(C)C)cc1 | 154 to 156 °C
* CCOC(=O)Cc1nc(-c2ccc(OC)cc2)oc1-c1ccco1 | 64 to 66 °C
* C#Cc1c(N)nc(-c2ccc(Cl)c(OC)c2F)nc1C(=O)OC | 174 to 176 °C
* CSc1nc(NCc2ccc(Br)cc2)n2ncc(C(C)C)c2n1 | 171 to 172 °C
* O=C1c2ccccc2C(=O)N1CC(=O)N(CC(=O)n1ccnc1)c1ccccc1 | 206 °C
* Cn1nnnc1CC(O)(c1ccccc1)c1ccccc1 | 175 to 176 °C
* COC(=O)COc1ccc(CC(C)NCC(O)c2cc3ccccc3o2)cc1C (stereo unspecified) | 115 to 130 °C
* CN(C)c1ccc2c(c1)C(=O)C(n1ccnc1)CC2 (stereo unspecified) | 160 to 162 °C
* CCCCCCCCCCNC(=O)CCCCC(=O)OO | 77 to 85 °C
* Brc1ccc2nc(-c3ccccc3)cn2c1 | 192 to 194 °C
* CCOc1cc(N)c(Cl)cc1C(=O)NC1CCN(CC2CCN(C(=S)N(C)C)CC2)CC1 | 210 to 212 °C
* COC(=O)Oc1ccc(-c2ccc(=O)n(Cc3ccc(Cl)cc3F)c2)cc1 | 124 °C
* CCOC(=O)C1CCCn2c(cc3ccccc32)C1 (stereo unspecified) | 69 to 70 °C
* Cc1oc2c(C)c(C)c(NC(=O)c3ccc(F)cc3)c(C)c2c1-c1ccc(F)cc1 | 232 to 234 °C
* COC(=O)NCc1cc(C(C)=NOCc2cccc(C)n2)ccc1C | 72 to 75 °C
* CON=CC(C)(C)C(O)(COc1cccc2ccccc12)Cn1ccnc1 (stereo unspecified) | 177 to 178 °C
* Cc1nc2cc(-c3ccco3)ccc2o1 | 60 °C
* COc1cc(OC)nc(Oc2cccc(Cl)c2C(=O)NS(=O)(=O)C(C)C)n1 | 150 to 152 °C
* Cc1cn2cc(Cl)ccc2n1 | 94 to 96 °C

###

compounds and their reported melting point
ENDPOINT LABEL: melting point

* CC(CN1CCCC1)N1c2ccccc2Sc2ccc(C(=O)NCc3cccc(Cl)c3)cc21 (racemic) | 80 °C
* CCCCCn1c2c(c3ccc(OC)cc31)CN(S(=O)(=O)c1cccc3c(N(C)C)cccc13)CC2 | 71 to 72 °C
* CC1=C(C(=O)OC(C)C)C(c2cccc([N+](=O)[O-])c2)n2c(cc(=O)n2C(=O)OC(C)C)N1 (stereo unspecified) | 162 to 164 °C
* CC1=CC(N(C)Cc2ccccc2)C(O)C(C)(C)CC1=O (stereo unspecified) | 78.5 to 80 °C
* COC(=O)CCc1ncc(O)c(C(=O)OC)c1C(=O)OC | 66 to 67 °C
* CCOc1nn(-c2ccc(C(F)(F)F)cn2)cc1CCCOc1cccc(CCC(=O)O)c1 | 88 to 89 °C
* Oc1ccc(N=C2SCS2)cc1 | 162 to 163 °C
* COc1ccc(C(=O)Nc2ccccc2)cc1NS(=O)(=O)c1cccs1 | 180 to 183 °C
* CCN(c1ccccc1)C1CC(C)N(C(C)=O)c2ccc(-c3ccccc3)cc21 (stereo unspecified) | 121 °C
* CC(C)=Cc1c(C)nc(C)c(CO)c1-c1ccccc1 | 48 to 50 °C
* Cc1cc2cc(Nc3ncnc4cc(-c5ccccc5)sc34)ccc2[nH]1 | 218 to 220 °C
* CSc1nc(N)n(-c2ccccc2Oc2ccc(C)cc2O)n1 | 41 to 42 °C
* CCOc1cc(=O)n(C)c2ccccc12 | 80 to 82 °C
* CCc1ccnc(C(=O)c2[nH]c3ccc(Cl)cc3c2CC(=O)O)c1F | 208 °C
* CC(=O)Nc1c(C(=O)c2ccc(Cl)c(Cl)c2)[nH]c2cc(Cl)ccc12 | 169 to 171 °C
* CCS(=O)(=O)Nc1cc(C2CCCCC2)cc2c1CCCC2c1c[nH]cn1 (stereo unspecified) | 207 to 209 °C
* OCC1OC(n2cnc3c(NCc4ccc5ccc6cccc7ccc4c5c67)ncnc32)C(O)C1O (stereo unspecified) | 144 °C
* O=C(O)c1cc2cc(C(=O)c3cccs3)c(Cl)c(Cl)c2o1 | 243 to 245 °C
* CCCCN1C(=O)NC(=Cc2cccs2)C1=O | 140 °C
* COc1cc(OC)c2c(=O)[nH]c(-c3ccc(O)cc3)nc2c1 | 303 to 305 °C
* N#CCC(=O)NCc1ccc(Cl)nc1 | 119 °C
